targetSystem: human GLP-1 receptor (Homo sapiens (Human), UniProt P43220)
Sequence (P43220 24-463): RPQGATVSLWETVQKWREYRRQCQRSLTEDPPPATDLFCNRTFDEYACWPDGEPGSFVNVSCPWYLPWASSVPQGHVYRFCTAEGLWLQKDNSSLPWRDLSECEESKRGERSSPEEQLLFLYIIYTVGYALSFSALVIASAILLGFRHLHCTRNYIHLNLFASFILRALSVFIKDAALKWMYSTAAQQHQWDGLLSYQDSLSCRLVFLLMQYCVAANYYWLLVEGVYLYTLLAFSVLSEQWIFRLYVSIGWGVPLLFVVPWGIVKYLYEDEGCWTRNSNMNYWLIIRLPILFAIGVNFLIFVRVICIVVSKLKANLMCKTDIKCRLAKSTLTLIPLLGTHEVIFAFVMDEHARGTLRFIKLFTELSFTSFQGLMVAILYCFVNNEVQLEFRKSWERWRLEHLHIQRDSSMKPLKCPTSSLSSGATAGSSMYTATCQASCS
assayConditions: read-out: Mean EC50; cAMP, HTRF detection, 30 min at 37° C., HEK-293 cells expressing cloned human GLP-1 receptor
readoutKind: EC50 (nM)

Some compounds with recorded EC50:
compound: Cc1noc(C)c1S(=O)(=O)N1Cc2cc3c(cc2C[C@H]1C(=O)N[C@@H](Cc1ccc(-c2ccc(C#N)cc2)cc1)C(=O)O)OCC(c1ccc(OCc2ccc(Cl)c(Cl)c2)cc1)O3 (stereo in doubt) [Example 128]
resultNumber: 178

compound: N#Cc1ccc(-c2ccc(C[C@H](NC(=O)[C@@H]3Cc4cc5c(cc4CN3S(=O)(=O)c3ccc(N4CCOCC4)nc3)OC(c3ccc(OCc4ccc(Cl)c(Cl)c4)cc3)CO5)C(=O)O)cc2)cc1 (stereo in doubt) [Example 112]
resultNumber: 48

compound: Cn1ccnc1CN1Cc2cc3c(cc2C[C@H]1C(=O)N[C@@H](Cc1ccc(-c2ccc(C#N)cc2)cc1)C(=O)O)OCC(c1ccc(OCc2ccc(Cl)c(Cl)c2)cc1)O3 (stereo in doubt) [Example 40]
resultNumber: 310

I. Cc1nc(C(=O)N2Cc3cc4c(cc3C[C@H]2C(=O)N[C@@H](Cc2ccc(-c3ccnc(C)c3C)cc2)C(=O)O)OC[C@H](c2ccc(OCc3c(F)cccc3Cl)cc2)O4)c(C)o1 [Example 360]
II. Cc1nc(C)c(C(=O)N2Cc3cc4c(cc3C[C@H]2C(=O)N[C@@H](Cc2ccc(-c3ccnc(C)c3C)cc2)C(=O)O)OC[C@H](c2ccc(OCc3ccc(Cl)c(Cl)c3)cc2)O4)o1 [Example 432]
From the recorded data, which exceeds the other in EC50: I or II ? Indicate your choice by writing its label.
I
(I: 297 nM, II: 21 nM)

====

targetSystem: human GLP-1 receptor (Homo sapiens (Human), UniProt P43220)
assayConditions: read-out: Mean EC50; cAMP, HTRF detection, 30 min at 37° C., HEK-293 cells expressing cloned human GLP-1 receptor
pEC50: −log10 of the molar value.
readoutKind: pEC50

compound: Cc1nccc(-c2ccc(C[C@H](NC(=O)[C@@H]3Cc4cc5c(cc4CN3C(=O)OC(C)(C)C)O[C@@H](c3ccc(OCc4ccc(Cl)c(Cl)c4)cc3)CO5)C(=O)O)cc2)c1C
pEC50: 6.82
//
compound: Cc1nc(N)sc1S(=O)(=O)N1Cc2cc3c(cc2C[C@H]1C(=O)N[C@@H](Cc1ccc(-c2ccc(C#N)cc2)cc1)C(=O)O)OC[C@H](c1ccc(OCc2ccc(Cl)c(Cl)c2)cc1)O3
pEC50: 6.49
//
compound: Cc1nccc(-c2ccc(C[C@H](NC(=O)[C@@H]3Cc4cc5c(cc4CN3C(=O)N[C@H](C)c3ccccc3)O[C@@H](c3ccc(OCCc4ccc(Cl)c(Cl)c4)cc3)CO5)C(=O)O)cc2)c1C
pEC50: 6.81
//
compound: CC[C@@H](c1ccccc1)N1Cc2cc3c(cc2C[C@H]1C(=O)N[C@@H](Cc1ccc(-c2cnn(C)c2)cc1)C(=O)O)OC[C@H](c1ccc(OCc2ccc(Cl)c(Cl)c2)cc1)O3
pEC50: 6.58
//
compound: Cc1nccc(-c2ccc(C[C@H](NC(=O)[C@@H]3Cc4cc5c(cc4CN3C(=O)c3nc[nH]n3)O[C@@H](c3ccc(OCc4ccc(Cl)c(Cl)c4)cc3)CO5)C(=O)O)cc2)c1C
pEC50: 7.18
//
compound: CC(=O)Nc1ccc(S(=O)(=O)N2Cc3cc4c(cc3C[C@H]2C(=O)N[C@@H](Cc2ccc(-c3ccc(C#N)cc3)cc2)C(=O)O)OCC(c2ccc(OCc3ccc(Cl)c(Cl)c3)cc2)O4)c(C)c1 (stereo in doubt)
pEC50: 7.36
//
compound: Cc1ccccc1NC(=O)N1Cc2cc3c(cc2C[C@H]1C(=O)N[C@@H](Cc1ccc(Oc2ccnc(C)c2C)cc1)C(=O)O)OC[C@H](c1ccc(OCc2ccc(Cl)c(Cl)c2)cc1)O3
pEC50: 6.42
//
compound: Cc1nccc(-c2ccc(C[C@H](NC(=O)[C@@H]3Cc4cc5c(cc4CN3C(=O)OCC(C)C)O[C@@H](c3ccc(OCc4ccc(Cl)c(Cl)c4)cc3)CO5)C(=O)O)cc2)c1C
pEC50: 6.86

1. Cc1nccc(-c2ccc(C[C@H](NC(=O)[C@@H]3Cc4cc5c(cc4CN3C(=O)c3cccc(F)c3)O[C@@H](c3ccc(OCc4ccc(Cl)c(Cl)c4)cc3)CO5)C(=O)O)cc2)c1C
2. Cc1nccc(Oc2ccc(C[C@H](NC(=O)[C@@H]3Cc4cc5c(cc4CN3C(=O)OCc3ccccc3)O[C@@H](c3ccc(OCc4ccc(Cl)c(Cl)c4)cc3)CO5)C(=O)O)cc2)c1C
Which value of pEC50 is smaller, the one for 1 or the one for 2 ? Indicate your choice by writing its label.
2

Data credit: patent US9175003B2
